This listing pairs binders with measured Span.
Target entity: T1, human chemokine (C-C motif) receptor 8 (CCR8) protein (human, UniProt P51685 1-355)
T1 construct: whole, on cells; also called human CCR8
Assay remarks: cell binding, CCR8-expressing CHO-K1 cells, curve fit
Give a plain numeric answer without units written out.

Binder	Observable	Value reported
137-xi (antibody, V domains shown, also called 137D1H10; chimeric 137D1H10) VH: EVQLVESGGGLVQPKGSLKLSCTASGFTFNTYAMNWVRQAPGKGLEWVARIRSKANNYATYYADSVKDRFTISRDDSQRILYLQMNNLKAEDTAMYYCVRDRSRGEDYAMDYWGQGTSVTVSS VL: DIVMTQAAPSVPVTPGESVSISCRSSKSLLHSNGNTYLYWFLQRPGQSPQLLIYRMSNLASGVPDRFSGSGSGTAFTLRISRVEAEDVGVYYCMQHLEYPFTFGAGTKLELK	Span	31900

Here's the next entry for you.
The reported Span of the binder 137-H2L2 (antibody, V domains shown, Humanized 137D1H10) VH: EVQLVESGGGLVQPGGSLKLSCAASGFTFNTYAMNWVRQASGKGLEWVGRIRSKANNYATYYADSVKDRFTISRDDSKNTAYLQMNNLKTEDTAVYYCVRDRSRGEDYAMDYWGQGTLVTVSS VL: DIVMTQSPLSLPVTPGEPASISCRSSKSLLHSNANTYLYWFLQKPGQSPQLLIYRMSNLASGVPDRFSGSGSGTAFTLKISRVEAEDVGVYYCMQHLEYPFTFGQGTKLEIK was 26800
